Assay: Fraction unbound in Sprague-Dawley rat plasma at 1 mg/kg, iv or 2 mg/kg, po
Assay type: ADME, organism-based
Reported property: fraction unbound

Solved cases (2 shown):
INSERT INTO results (test_smiles, reported_property, result) VALUES
  ('Cc1nccn1-c1ccc(-c2cn(CC(=O)Nc3cccc(Cl)c3Cl)nn2)cn1', 'fraction unbound', 0.066),
  ('Cc1nccn1-c1ccc(-c2cn(CC(=O)Nc3cccc(Cl)c3Cl)nn2)cc1', 'fraction unbound', 0.013);

Then this compound:
Briefly, fraction unbound measured for `Cc1cn(-c2ccc(-c3cn(CC(=O)Nc4cccc(Cl)c4Cl)nn3)cc2F)cn1` : < 0.001

====

Assay: Solubility of the compound in PBS at pH 7
Assay type: physicochemical
Listed here: items and their measured solubility.

Solved cases (5 shown):
INSERT INTO measurements (test_smiles, reported_property, result) VALUES
  ('Cc1nccn1-c1ccc(-c2cn(C(C)(C)C(=O)Nc3cccc(Cl)c3Cl)nn2)cc1', 'solubility', '35 µM'),
  ('Cc1nccn1-c1ccc(-c2cn(CC(=O)Nc3cccc(Cl)c3Cl)nn2)cn1', 'solubility', '2 µM'),
  ('Cc1nccn1-c1ccc(-c2cn(CC(=O)Nc3cccc(Cl)c3Cl)nn2)cc1', 'solubility', '5 µM'),
  ('Cc1cn(-c2ccc(-c3cn(CC(=O)Nc4cccc(Cl)c4Cl)nn3)cc2)cn1', 'solubility', '< 2 µM'),
  ('Cc1nccn1-c1ccc(-c2cn(CC(=O)N(C)c3cccc(Cl)c3Cl)nn2)cc1', 'solubility', '123 µM');

Briefly, solubility measured for `COc1cc(-c2cn(CC(=O)Nc3cccc4ccccc34)nn2)ccc1-n1cnc(C)c1` : < 1 µM

Briefly, solubility measured for `COc1cc(-c2cn(CC(=O)Nc3cccc(Cl)c3Cl)nn2)ccc1-n1cnc(C)c1` : < 1 µM

Briefly, solubility measured for `Cc1cn(-c2ccc(-c3cn(CC(=O)Nc4cccc(Cl)c4Cl)nn3)c(F)c2)cn1` : < 2 µM

Briefly, solubility measured for `Cc1nccn1Cc1ccc(-c2cn(CC(=O)Nc3cccc(Cl)c3Cl)nn2)cc1` : 3 µM

Briefly, solubility measured for `Cc1cn(-c2ccc(-c3cn(CC(=O)Nc4cccc(Cl)c4Cl)nn3)cc2F)cn1` : < 1 µM

Briefly, solubility measured for `O=C(Cn1cc(-c2ccc(-n3ccnc3)cc2)nn1)Nc1cccc(Cl)c1Cl` : < 1 µM

====

Molecular target: Cytochrome P450 3A4 (Homo sapiens)
Sequence (P08684 whole entry): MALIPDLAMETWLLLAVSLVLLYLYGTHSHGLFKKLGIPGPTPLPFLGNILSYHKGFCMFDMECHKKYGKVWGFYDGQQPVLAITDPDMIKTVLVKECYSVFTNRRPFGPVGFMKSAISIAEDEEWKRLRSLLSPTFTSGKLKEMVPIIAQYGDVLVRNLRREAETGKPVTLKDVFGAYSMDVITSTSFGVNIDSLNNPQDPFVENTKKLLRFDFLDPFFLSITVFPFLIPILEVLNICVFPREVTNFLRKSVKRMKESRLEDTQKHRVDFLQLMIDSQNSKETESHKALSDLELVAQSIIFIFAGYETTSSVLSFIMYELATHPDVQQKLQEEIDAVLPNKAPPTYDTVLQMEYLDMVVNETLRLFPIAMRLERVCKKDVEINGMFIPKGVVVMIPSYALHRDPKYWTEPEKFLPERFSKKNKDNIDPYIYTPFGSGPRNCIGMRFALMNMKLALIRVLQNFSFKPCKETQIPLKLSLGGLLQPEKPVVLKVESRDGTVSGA
Reported property: IC50 (µM)
Supply the numeric figure in µM, leaving out any unit text.

Log: Cytochrome P450 3A4 (Homo sapiens), compound `Cc1nccn1-c1ccc(-c2cn(CC(=O)Nc3cccc(Cl)c3Cl)nn2)cc1` , IC50 = 15

====

Test: Metabolic stability in human liver microsomes assessed as compound remaining at 1 uM measured after 30 mins
Format: ADME
Settings: read-out: Stability
Listed here: items and their measured remaining at 0.5 h, 1 µM.
Supply the numeric figure in %, leaving out any unit text.

Solved cases (5 shown):
INSERT INTO assay_data (test_smiles, reported_property, numeric_readout) VALUES
  ('Cc1cn(-c2ccc(-c3cn(CC(=O)Nc4cccc(Cl)c4Cl)nn3)cc2)cn1', 'remaining at 0.5 h, 1 µM', 45),
  ('O=C(Cn1cc(-c2ccc(-n3ccnc3)cc2)nn1)Nc1cccc(Cl)c1Cl', 'remaining at 0.5 h, 1 µM', 75),
  ('COc1cc(-c2cn(CC(=O)Nc3cccc(Cl)c3Cl)nn2)ccc1-n1cnc(C)c1', 'remaining at 0.5 h, 1 µM', 35),
  ('Cc1cn(-c2ccc(-c3cn(CC(=O)Nc4cccc(Cl)c4Cl)nn3)c(F)c2)cn1', 'remaining at 0.5 h, 1 µM', 35),
  ('Cc1nccn1-c1ccc(-c2cn(CC(=O)Nc3cccc(Cl)c3Cl)nn2)cn1', 'remaining at 0.5 h, 1 µM', 80);

Briefly, remaining at 0.5 h, 1 µM measured for `COc1cc(-c2cn(CC(=O)Nc3cccc4ccccc34)nn2)ccc1-n1cnc(C)c1` : 62

Briefly, remaining at 0.5 h, 1 µM measured for `Cc1nccn1-c1ccc(-c2cn(CC(=O)Nc3cccc(Cl)c3Cl)nn2)cc1` : 56
